test_system: HLA-A*02:01 (Homo sapiens, UniProt P04439, D140Y/D185E/D98H/E176V/E277Q/G131W/G231S/I119V/I121R/I166T/I218V/L300P/L318F/N151K/N90K/P208A/P217A/Q86G/Q94H/R138H/R169H/T345S)
experimental_protocol: MHC binding assay (UV-ligand exchange, beta2m ELISA, peptide exchange yield)
conditions: binding to HLA-A*02:01
quantity: Peptide exchange (MHC class I binding score, peptide exchange yield)

1. 100 (SLDDFLATA; listed as Homo sapiens) [compound 100]: “+++” (≥50 = +++)
2. 24 (VLDGVLMEL; listed as Homo sapiens) [compound 24]: “+++” (≥50 = +++)
3. 62 (YLAPENGYL; listed as Homo sapiens) [compound 62]: “++” (≥20% = ++)
4. 113 (ILYDLQQNL; listed as Homo sapiens) [compound 113]: “++” (≥20% = ++)
5. 16 (VLVDQSWVL; listed as Homo sapiens) [compound 16]: “+++” (≥50 = +++)
6. 7 (YLTRHLAVL; listed as Homo sapiens) [compound 7]: “++” (≥20% = ++)

Input 137 (QLTEIKPLL; listed as Homo sapiens) [compound 137] , output reported Peptide exchange (MHC class I binding score, peptide exchange yield). “+++” (≥50 = +++)

Input 109 (ALDGDQMEL; listed as Homo sapiens) [compound 109] , output reported Peptide exchange (MHC class I binding score, peptide exchange yield). “++” (≥20% = ++)

Input 128 (MLDDRAYLV; listed as Homo sapiens) [compound 128] , output reported Peptide exchange (MHC class I binding score, peptide exchange yield). “++” (≥20% = ++)

Input 73 (YLFDIAVSM; listed as Homo sapiens) [compound 73] , output reported Peptide exchange (MHC class I binding score, peptide exchange yield). “+++” (≥50 = +++)

====

test_system: HLA-A*02:01 (Homo sapiens, UniProt P04439, D140Y/D185E/D98H/E176V/E277Q/G131W/G231S/I119V/I121R/I166T/I218V/L300P/L318F/N151K/N90K/P208A/P217A/Q86G/Q94H/R138H/R169H/T345S)
experimental_protocol: MHC binding assay (UV-ligand exchange, beta2m ELISA, peptide exchange yield)
conditions: binding to HLA-A*02:01
quantity: Peptide exchange (MHC class I binding score, peptide exchange yield)

// worked examples, Peptide exchange (MHC class I binding score, peptide exchange yield) included
1. 119 (ILYQTVTGL; listed as Homo sapiens) [compound 119]: “++” (≥20% = ++)
2. 4 (RLAELTVDEFL; listed as Homo sapiens) [compound 4]: “+++” (≥50 = +++)
3. 162 (KLMDYIDEL; listed as Homo sapiens) [compound 162]: “+++” (≥50 = +++)
4. 186 (KMSEKILLL; listed as Homo sapiens) [compound 186]: “+++” (≥50 = +++)
5. 108 (SLAELVPGVGGI; listed as Homo sapiens) [compound 108]: “+++” (≥50 = +++)

Input 12 (ALVQGILERV; listed as Homo sapiens) [compound 12] , output reported Peptide exchange (MHC class I binding score, peptide exchange yield). “+++” (≥50 = +++)

Input 14 (FLDKPEDVLL; listed as Homo sapiens) [compound 14] , output reported Peptide exchange (MHC class I binding score, peptide exchange yield). “++” (≥20% = ++)

Input 70 (MISELEVRL; listed as Homo sapiens) [compound 70] , output reported Peptide exchange (MHC class I binding score, peptide exchange yield). “+++” (≥50 = +++)

====

test_system: HLA-A*02:01 (Homo sapiens, UniProt P04439, D140Y/D185E/D98H/E176V/E277Q/G131W/G231S/I119V/I121R/I166T/I218V/L300P/L318F/N151K/N90K/P208A/P217A/Q86G/Q94H/R138H/R169H/T345S)
experimental_protocol: MHC binding assay (UV-ligand exchange, beta2m ELISA, peptide exchange yield)
conditions: binding to HLA-A*02:01
quantity: Peptide exchange (MHC class I binding score, peptide exchange yield)

1. 150 (RLADLEALKV; listed as Homo sapiens) [compound 150]: “+++” (≥50 = +++)
2. 48 (FLDASDPAL; listed as Homo sapiens) [compound 48]: “++” (≥20% = ++)
3. 163 (RLLHEVQEL; listed as Homo sapiens) [compound 163]: “+++” (≥50 = +++)
4. 36 (GLLESPSIFNFTA; listed as Homo sapiens) [compound 36]: “+++” (≥50 = +++)
5. 188 (FLVDGPRVQL; listed as Homo sapiens) [compound 188]: “+++” (≥50 = +++)
6. 98 (AMNGKSFSV; listed as Homo sapiens) [compound 98]: “++” (≥20% = ++)
7. 93 (SLQELRLLL; listed as Homo sapiens) [compound 93]: “++++” (≥75% = ++++)
8. 178 (YLFREPATI; listed as Homo sapiens) [compound 178]: “++” (≥20% = ++)
9. 54 (ALLNGEYLLAA; listed as Homo sapiens) [compound 54]: “+++” (≥50 = +++)
10. 26 (GLASKENFSNVSL; listed as Homo sapiens) [compound 26]: “++” (≥20% = ++)

Input 182 (SLNKWIFTV; listed as Homo sapiens) [compound 182] , output reported Peptide exchange (MHC class I binding score, peptide exchange yield). “++++” (≥75% = ++++)

Input 156 (SLMMTIINL; listed as Homo sapiens) [compound 156] , output reported Peptide exchange (MHC class I binding score, peptide exchange yield). “++++” (≥75% = ++++)

====

test_system: HLA-A*02:01 (Homo sapiens, UniProt P04439, D140Y/D185E/D98H/E176V/E277Q/G131W/G231S/I119V/I121R/I166T/I218V/L300P/L318F/N151K/N90K/P208A/P217A/Q86G/Q94H/R138H/R169H/T345S)
experimental_protocol: MHC binding assay (UV-ligand exchange, beta2m ELISA, peptide exchange yield)
conditions: binding to HLA-A*02:01
quantity: Peptide exchange (MHC class I binding score, peptide exchange yield)

// worked examples, Peptide exchange (MHC class I binding score, peptide exchange yield) included
1) 159 (VLVDDDGIKVV; listed as Homo sapiens) [compound 159]: “++” (≥20% = ++)
2) 35 (KLLDLTVRI; listed as Homo sapiens) [compound 35]: “+++” (≥50 = +++)
3) 185 (VLYTGVVRV; listed as Homo sapiens) [compound 185]: “+++” (≥50 = +++)
4) 126 (TLAKYLMEL; listed as Homo sapiens) [compound 126]: “+++” (≥50 = +++)
5) 166 (GLLEARGILGL; listed as Homo sapiens) [compound 166]: “+++” (≥50 = +++)
6) 43 (TLDAAQPRV; listed as Homo sapiens) [compound 43]: “++” (≥20% = ++)

Input 127 (RLAELTVDEFLA; listed as Homo sapiens) [compound 127] , output reported Peptide exchange (MHC class I binding score, peptide exchange yield). “+++” (≥50 = +++)

Input 90 (GLLKPGLNVVL; listed as Homo sapiens) [compound 90] , output reported Peptide exchange (MHC class I binding score, peptide exchange yield). “+++” (≥50 = +++)

Input 82 (QLYEEPDTKL; listed as Homo sapiens) [compound 82] , output reported Peptide exchange (MHC class I binding score, peptide exchange yield). “++” (≥20% = ++)

====

test_system: HLA-A*02:01 (Homo sapiens, UniProt P04439, D140Y/D185E/D98H/E176V/E277Q/G131W/G231S/I119V/I121R/I166T/I218V/L300P/L318F/N151K/N90K/P208A/P217A/Q86G/Q94H/R138H/R169H/T345S)
experimental_protocol: MHC binding assay (UV-ligand exchange, beta2m ELISA, peptide exchange yield)
conditions: binding to HLA-A*02:01
quantity: Peptide exchange (MHC class I binding score, peptide exchange yield)

// worked examples, Peptide exchange (MHC class I binding score, peptide exchange yield) included
1. 22 (GLIDEVMVL; listed as Homo sapiens) [compound 22]: “+++” (≥50 = +++)
2. 71 (RLWTEIPTAI; listed as Homo sapiens) [compound 71]: “+++” (≥50 = +++)
3. 172 (LLLDTVTMQV; listed as Homo sapiens) [compound 172]: “+++” (≥50 = +++)
4. 23 (FLDANGHFV; listed as Homo sapiens) [compound 23]: “+++” (≥50 = +++)

Input 175 (TLLGGKEAQALGV; listed as Homo sapiens) [compound 175] , output reported Peptide exchange (MHC class I binding score, peptide exchange yield). “+++” (≥50 = +++)

Input 181 (NLFDLGGQYLRV; listed as Homo sapiens) [compound 181] , output reported Peptide exchange (MHC class I binding score, peptide exchange yield). “+++” (≥50 = +++)

Input 173 (KLGDLMVLL; listed as Homo sapiens) [compound 173] , output reported Peptide exchange (MHC class I binding score, peptide exchange yield). “+++” (≥50 = +++)
